FYI, the data here is from PubChem BioAssay (NCI).

So I've got a bunch of molecules here, and I need their TGI values.
# System: SF-295 CNS
# EXPERIMENT_NOTES: NCI tumour cell line growth inhibition, 48 h

IN: Return reported TGI. Input molecule: CCOC(=O)Nc1ccc(C(=O)/C=C/c2ccccc2)cc1
OUT: > 100 µM

IN: Return reported TGI. Input molecule: Cc1ccc(C2=Nn3c(nc4sc5c(c4c3=O)CCCC5)SC2)cc1
OUT: > 100 µM

IN: Return reported TGI. Input molecule: COc1cccc(N2C(=O)C3c4[nH]c5ccc(C)cc5c4C4CCC(C)CC4C3C2=O)c1 (stereo unspecified)
OUT: > 100 µM

IN: Return reported TGI. Input molecule: O=C(O)c1cc2cc(O)ccc2[nH]1
OUT: > 100 µM

IN: Return reported TGI. Input molecule: COc1ccc2cc(/C=N\NC(=O)Nc3ccc([N+](=O)[O-])cc3)ccc2c1
OUT: 20.7 µM

IN: Return reported TGI. Input molecule: N#Cc1nc(-c2ccc(-c3nc(C#N)c(N)o3)cc2)oc1N
OUT: > 10 µM
